Assay: TK assay, oral mixture dosing: serum concentrations and noncompartmental analysis (sparse data)
Conditions: female, New Zealand white (INRA 1777 line), rabbit, in vivo, po, Serum concentration, rabbit 22, 0.57 h
Reported concentration at 0.57 h by item:
State the value, then name its unit.

COMPOUND	concentration at 0.57 h
Brc1ccc(Oc2ccc(Br)cc2Br)c(Br)c1 [BDE-47, 2,2′,4,4′-tetrabromodiphenyl ether]	12 nM

# context switch: different compound, same concentration at 0.57 h
Measured concentration at 0.57 h, Cl[C@H]1[C@H](Cl)[C@@H](Cl)[C@H](Cl)[C@@H](Cl)[C@@H]1Cl [β-HCH, β-hexachlorocyclohexane] : 29 nM
